Please provide measured BHET released for the entries that follow.
# experiment: BHET released, HPLC; higher = more BHET released; extreme values may be limits of the assay
# test-parameters: PET substrate: cryPow; 60 °C; pH 5.5; 24 h
Please respond with the number in mM and leave the unit unwritten.

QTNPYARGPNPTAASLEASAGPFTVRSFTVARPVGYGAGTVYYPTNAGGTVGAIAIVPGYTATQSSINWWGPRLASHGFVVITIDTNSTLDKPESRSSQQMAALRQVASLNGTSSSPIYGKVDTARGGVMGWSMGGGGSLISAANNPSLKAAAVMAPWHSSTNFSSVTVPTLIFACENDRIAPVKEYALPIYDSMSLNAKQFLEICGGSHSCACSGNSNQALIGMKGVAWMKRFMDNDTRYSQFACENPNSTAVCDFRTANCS [HotPETase] has a reported BHET released of 0.0125

Please fill in: BHET released reported for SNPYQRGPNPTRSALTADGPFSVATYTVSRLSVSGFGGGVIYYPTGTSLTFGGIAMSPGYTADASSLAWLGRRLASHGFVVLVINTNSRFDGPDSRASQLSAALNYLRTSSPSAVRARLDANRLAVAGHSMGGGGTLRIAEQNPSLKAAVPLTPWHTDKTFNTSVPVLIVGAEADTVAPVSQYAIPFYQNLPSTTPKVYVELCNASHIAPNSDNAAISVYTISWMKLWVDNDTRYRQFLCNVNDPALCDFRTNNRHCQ [LCC-A2] = 0

Data point: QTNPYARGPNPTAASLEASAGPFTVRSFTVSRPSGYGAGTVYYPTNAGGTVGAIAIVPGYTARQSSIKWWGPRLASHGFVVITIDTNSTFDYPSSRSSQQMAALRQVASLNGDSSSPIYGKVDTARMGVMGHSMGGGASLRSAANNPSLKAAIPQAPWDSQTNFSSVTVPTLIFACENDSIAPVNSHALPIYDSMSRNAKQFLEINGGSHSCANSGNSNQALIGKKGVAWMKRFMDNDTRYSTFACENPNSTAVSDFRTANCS [DuraPETase] ; BHET released = 0

// recorded BHET released for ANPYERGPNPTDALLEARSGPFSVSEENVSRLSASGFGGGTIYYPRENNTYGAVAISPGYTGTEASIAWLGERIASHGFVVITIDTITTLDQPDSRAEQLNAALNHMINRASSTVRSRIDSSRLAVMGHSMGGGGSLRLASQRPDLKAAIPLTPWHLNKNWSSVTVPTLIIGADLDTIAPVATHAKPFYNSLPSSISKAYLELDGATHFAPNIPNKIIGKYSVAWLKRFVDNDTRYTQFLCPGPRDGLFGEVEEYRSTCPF [TfCut2] : 0

Lab book: BHET released of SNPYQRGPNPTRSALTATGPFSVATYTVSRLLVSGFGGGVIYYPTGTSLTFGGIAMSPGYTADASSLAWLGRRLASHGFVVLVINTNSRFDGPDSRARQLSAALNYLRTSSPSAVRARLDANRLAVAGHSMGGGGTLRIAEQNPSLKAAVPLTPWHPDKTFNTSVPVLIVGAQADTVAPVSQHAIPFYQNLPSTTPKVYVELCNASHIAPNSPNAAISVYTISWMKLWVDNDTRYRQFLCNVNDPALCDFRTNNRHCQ [LCC-ICCG I6M] noted as 0

----------
# experiment: BHET released, HPLC; higher = more BHET released; extreme values may be limits of the assay
# test-parameters: PET substrate: aFilm; 70 °C; pH 6.5; 24 h
readout-name: BHET released (mM)
Number in mM, nothing else.

// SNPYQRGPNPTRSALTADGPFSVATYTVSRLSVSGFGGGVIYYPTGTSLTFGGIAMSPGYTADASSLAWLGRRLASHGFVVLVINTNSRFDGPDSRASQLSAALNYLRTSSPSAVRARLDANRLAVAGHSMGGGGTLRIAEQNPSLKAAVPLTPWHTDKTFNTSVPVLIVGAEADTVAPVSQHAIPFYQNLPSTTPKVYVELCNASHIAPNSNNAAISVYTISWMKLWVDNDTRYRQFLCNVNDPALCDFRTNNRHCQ [LCC-ICCG] : BHET released value = 0

Values were extracted from the supplement of paper PMC11196671.
